Listed below: pKd values for each entry.
- SYSTEM_TESTED: feline FcRn (FCN-F82W3, Acrobiosystems) (feline)
- ASSAY_METHOD_TEXT: SPR Carterra, IgG coupled, pH 6.0
Lab note — pKd values are minus log10 of concentrations in M.

Worked cases, pKd given:
Provide one value: measured pKd of anti-NGF feline IgG1a, Fc variant Q347L (antibody, part only; not given: Anti-NGF variable domains, not shown: another chain or arm of the molecule; small tags and cut ends) Fc: PPEMLGGPSIFIFPPKPKDTLSISRTPEVTCLVVDLGPDDSDVQITWFVDNTQVYTAKTSPREEQFNSTYRVVSVLPILHQDWLKGKEFKCKVNSKSLPSPIERTISKAKGQPHEPLVYVLPPAQEELSRNKVSVTCLIKSFHPPDIAVEWEITGQPEPENNYRTTPPQLDSDGTYFVYSKLSVDRSHWQRGNTYTCSVSHEALHSHHTQKSLTQSPGK
6.80

Provide one value: measured pKd of anti-NGF feline IgG1a, Fc variant S254K (antibody, part only; not given: Anti-NGF variable domains, not shown: another chain or arm of the molecule; small tags and cut ends) Fc: PPEMLGGPSIFIFPPKPKDTLSIKRTPEVTCLVVDLGPDDSDVQITWFVDNTQVYTAKTSPREEQFNSTYRVVSVLPILHQDWLKGKEFKCKVNSKSLPSPIERTISKAKGQPHEPQVYVLPPAQEELSRNKVSVTCLIKSFHPPDIAVEWEITGQPEPENNYRTTPPQLDSDGTYFVYSKLSVDRSHWQRGNTYTCSVSHEALHSHHTQKSLTQSPGK
6.97

Provide one value: measured pKd of anti-NGF feline IgG1a, Fc variant T286E, S428H (antibody, part only; not given: Anti-NGF variable domains, not shown: another chain or arm of the molecule; small tags and cut ends) Fc: PPEMLGGPSIFIFPPKPKDTLSISRTPEVTCLVVDLGPDDSDVQITWFVDNTQVYEAKTSPREEQFNSTYRVVSVLPILHQDWLKGKEFKCKVNSKSLPSPIERTISKAKGQPHEPQVYVLPPAQEELSRNKVSVTCLIKSFHPPDIAVEWEITGQPEPENNYRTTPPQLDSDGTYFVYSKLSVDRSHWQRGNTYTCSVHHEALHSHHTQKSLTQSPGK
7.33

Provide one value: measured pKd of anti-NGF feline IgG1a, Fc variant S434Y, Q347L (antibody, part only; not given: Anti-NGF variable domains, not shown: another chain or arm of the molecule; small tags and cut ends) Fc: PPEMLGGPSIFIFPPKPKDTLSISRTPEVTCLVVDLGPDDSDVQITWFVDNTQVYTAKTSPREEQFNSTYRVVSVLPILHQDWLKGKEFKCKVNSKSLPSPIERTISKAKGQPHEPLVYVLPPAQEELSRNKVSVTCLIKSFHPPDIAVEWEITGQPEPENNYRTTPPQLDSDGTYFVYSKLSVDRSHWQRGNTYTCSVSHEALHYHHTQKSLTQSPGK
8.47

Provide one value: measured pKd of anti-NGF feline IgG1a with wild-type Fc (antibody, part only; not given: anti-NGF variable domains, not shown: another chain or arm of the molecule; small tags and cut ends) Fc: PPEMLGGPSIFIFPPKPKDTLSISRTPEVTCLVVDLGPDDSDVQITWFVDNTQVYTAKTSPREEQFNSTYRVVSVLPILHQDWLKGKEFKCKVNSKSLPSPIERTISKAKGQPHEPQVYVLPPAQEELSRNKVSVTCLIKSFHPPDIAVEWEITGQPEPENNYRTTPPQLDSDGTYFVYSKLSVDRSHWQRGNTYTCSVSHEALHSHHTQKSLTQSPGK
6.63

***
Provide one value: measured pKd of anti-NGF feline IgG1a, Fc variant R334D, T437L (antibody, part only; not given: anti-NGF variable domains, light chain, not shown: another chain or arm of the molecule; small tags and cut ends) Fc: PPEMLGGPSIFIFPPKPKDTLSISRTPEVTCLVVDLGPDDSDVQITWFVDNTQVYTAKTSPREEQFNSTYRVVSVLPILHQDWLKGKEFKCKVNSKSLPSPIEDTISKAKGQPHEPQVYVLPPAQEELSRNKVSVTCLIKSFHPPDIAVEWEITGQPEPENNYRTTPPQLDSDGTYFVYSKLSVDRSHWQRGNTYTCSVSHEALHSHHLQKSLTQSPGK
7.02
